Here the recorded PBM E-score is given for each entry.
Target: Nrg2 (UniProt P38082)
Sequence: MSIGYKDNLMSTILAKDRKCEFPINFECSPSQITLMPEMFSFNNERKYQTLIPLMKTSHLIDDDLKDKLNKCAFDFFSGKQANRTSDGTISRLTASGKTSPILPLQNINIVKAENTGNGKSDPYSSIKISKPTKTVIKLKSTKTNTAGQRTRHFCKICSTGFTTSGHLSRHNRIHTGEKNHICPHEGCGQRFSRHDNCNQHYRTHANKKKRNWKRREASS
Assay: PBM E-score (8-mer binding enrichment) (E-score (-0.5 to 0.5)); higher = stronger / more preferred TF binding
Settings: protein concentration: 100 nM; construct: GST-full length
Over roughly 33,000 sequences, “E-score (-0.5 to 0.5)” has its median near -8e-05; the highest 2% begin near 0.23. What follows is part of a selection rich in the highest values, with near analogues and random picks from the rest.
OUTCOME_MEASURE: PBM E-score

INSERT INTO results (construct_sequence, data_value) VALUES
  ('CGCCCGAG', 0.117),
  ('AGAGTTGA', -0.073),
  ('CGTCACAG', 0.282),
  ('AACCTTAC', 0.108),
  ('GTATGATA', 0.281),
  ('ATATGATA', 0.249),
  ('AGAAAGTC', 0.037),
  ('AACTGCAG', -0.0636),
  ('ATATGATG', 0.0173),
  ('GACCCTCA', -0.116),
  ('GATGCGGC', -0.094),
  ('ACAGTTCG', 0.103),
  ('AACCTTAA', 0.293),
  ('AACCTTAG', -0.109),
  ('GCATGATA', 0.0399),
  ('ATTTTCCC', 0.124),
  ('ACAGGGTG', 0.0367),
  ('ATTTCCAA', -0.0757),
  ('TCTCTTAA', 0.123),
  ('GTATGAGA', 0.133),
  ('CTATGACA', -0.012),
  ('GCGTGAGC', 0.142),
  ('TAAGAGGA', -0.0476),
  ('ATTTTCCG', 0.249),
  ('CCGCCCTC', -0.112),
  ('GAGACAGA', 0.14),
  ('ATTTCCAC', 0.255),
  ('TAGCGTGA', 0.0132),
  ('CACCGGGG', -0.413),
  ('ATAGGGTA', 0.17),
  ('GTGGATTA', 0.0668),
  ('ACAGGGTA', 0.349),
  ('CACCAAGA', 0.00109),
  ('ATTTCCAG', 0.0415),
  ('GTCCCGTA', -0.111),
  ('GTATGACA', -0.0684),
  ('AATATTCG', 0.177),
  ('CGTCACAC', -0.0186),
  ('AGTGACTA', -0.133),
  ('ATCGAAGA', 0.193),
  ('GGCATAGA', 0.0809),
  ('AATATTCA', 0.144),
  ('CATAGTCG', -0.0054),
  ('AATATTCC', 0.233),
  ('ATTACCAA', 0.0553),
  ('GACCCCTA', 0.151);
